Kindly supply the reported Kd values for the records listed here.
Experimental System: recombinant Pseudomonas aeruginosa PcrV, full-length (PAO), His-tagged (Pseudomonas aeruginosa)
Protocol Details: BLI
Could you kindly put the unit after your number?

# return Kd for each item in the list
1. 3A11 (antibody, V domains shown, also called optimized anti-PcrV mAb clone 3A11) VH: EVQLLESGGGLVQPGGSLRLSCTASGFTFSSYHMSWVRQAPGKGLDWVSGISESGGSTNYADSVKGRFSTSRDNSKSTLYLDMNSLRAEDTAIYYCAKGRFSQSSSHFFRAVYGMDVWGQGTAVTVSS VL: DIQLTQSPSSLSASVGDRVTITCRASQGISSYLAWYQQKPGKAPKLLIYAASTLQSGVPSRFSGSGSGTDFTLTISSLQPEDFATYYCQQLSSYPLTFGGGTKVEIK
2. 3B12 (antibody, V domains shown, also called optimized anti-PcrV mAb clone 3B12) VH: EVQLLESGGGLVQPGGSLRLSCTASGFTFSSNHMSWVRQAPGKGLDWVSGISESGGSTNYADSVKGRFSTSRDNSKSTLYLDMNSLRAEDTAIYYCAKGRFSDEYGHFFRAVYGMDVWGQGTAVTVSS VL: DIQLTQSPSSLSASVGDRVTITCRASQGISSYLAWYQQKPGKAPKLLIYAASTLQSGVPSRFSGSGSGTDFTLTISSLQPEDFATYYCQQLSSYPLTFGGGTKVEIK
3. 7B2 (antibody, V domains shown, also called optimized anti-PcrV mAb clone 7B2) VH: EVQLLESGGGLVQPGGSLRLSCTASGFTFSDYPMSWVRQAPGKGLDWVSGISESGGSTNYADSVKGRFSTSRDNSKSTLYLDMNSLRAEDTAIYYCAKGRFSTDSSHFFRAVYGMDVWGQGTAVTVSS VL: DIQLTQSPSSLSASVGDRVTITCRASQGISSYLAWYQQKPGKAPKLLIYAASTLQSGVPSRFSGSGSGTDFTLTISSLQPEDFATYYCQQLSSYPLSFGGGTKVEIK
4. 8C1 (antibody, V domains shown, also called optimized anti-PcrV mAb clone 8C1) VH: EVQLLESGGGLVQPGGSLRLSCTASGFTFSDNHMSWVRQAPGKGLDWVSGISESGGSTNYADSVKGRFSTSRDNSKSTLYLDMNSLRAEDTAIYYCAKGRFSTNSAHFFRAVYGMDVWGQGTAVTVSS VL: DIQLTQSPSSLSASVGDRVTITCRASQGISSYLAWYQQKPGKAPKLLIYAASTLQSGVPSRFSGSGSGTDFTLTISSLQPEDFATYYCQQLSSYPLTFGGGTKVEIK

1. 0.126 nM
2. 0.167 nM
3. 0.0875 nM
4. 0.33 nM
